The reported measurements were obtained from PubChem BioAssay (NCI).

System: UACC-62 melanoma
Test: NCI tumour cell line growth inhibition, 48 h
Reported log10(TGI) values are given for each entry in this list.
Please be aware that the numbers have been log10-transformed from TGI in µM.

Some compounds with recorded log10(TGI):
>>> observed_value("CC(C)(C)C[C@H]1N[C@@H](C(=O)NC2CCC(O)CC2)[C@H](c2cccc(Cl)c2F)[C@@]12C(=O)Nc1cc(Cl)ccc12 (stereo not given in full)")
0.39
>>> observed_value("O=C1C(=O)c2c(nc3ccc(C(F)(F)F)cn23)-c2ccccc21")
-0.46
>>> observed_value("O=C1NC(O)c2cc3ccccc3cc2O1 (stereo not given)")
1.69
>>> observed_value("COc1cc2c(/C=C3\\C(=O)Nc4ccccc43)c[nH]c2cc1C")
0.87
>>> observed_value("C=C1C(=O)O[C@@H]2/C=C(/C)[C@@H](OC(C)=O)C/C=C(\\C)C(O)[C@@H](OC(=O)/C(C)=C\\C)C12 (stereo not given in full)")
1.95

Prompt: Entry CCCCNC(c1ccc(Cl)cc1)C(O)c1ccc(Cl)cc1 (stereo not given) has what log10(TGI)?
Completion: 0.50

Prompt: Entry CC(C)(C)C1CCC2c3c([nH]c4ccccc34)C3C(=O)N(c4ccc([N+](=O)[O-])cc4)C(=O)C3C2C1 (stereo not given) has what log10(TGI)?
Completion: 1.59

###

Tested on: SF-268 CNS
Assay: NCI tumour cell line growth inhibition, 48 h
metric_name: TGI (µM)
// return numeric value only (unit: µM, not printed)

>>> observed_value("COc1ccc2[nH]c(C(=O)N3CCN(C(=O)OCc4ccc5c(Cl)cc(Cl)c(O)c5n4)CC3)cc2c1")
3.02

Prompt: I'm curious: which TGI was measured for CCCCCCCC(=O)OCC/C=C/C1OC1C1OC(=O)/C=C\C=C\C(=O)N(C(C)=O)C(=O)/C=C(/C)CCC2OC2C1OC(=O)NC(C)=O (centres undefined) tested on SF-268 CNS?
Completion: 12.1

Prompt: I'm curious: which TGI was measured for Nc1c(C(=O)c2ccc(Cl)c(Cl)c2)[nH]c(NCc2ccccc2)c1C(=S)Nc1ccccc1 tested on SF-268 CNS?
Completion: 31.5

###

Test system: MALME-3M melanoma
Experiment: NCI tumour cell line growth inhibition, 48 h
Reported TGI values are given for each entry in this list.
// return numeric value only (unit: µM, not printed)

Some compounds with recorded TGI:
>>> observed_value("Cn1c(COC(=O)NCCc2ccccn2)nc2c(N3CCOCC3)nc(Cl)nc21")
3.38
>>> observed_value("CC1OC(OC2C(O[C@H]3CC[C@@]4(C)C(=CC[C@H]5[C@@H]6C[C@@H]7O[C@]8(CC[C@@H](C)CO8)[C@@H](C)[C@@H]7[C@@]6(C)CC[C@@H]54)C3)OC(CO)C(O)C2OC2OC(CO)C(O)C(O)C2O)C(O)C(O)C1O (some centres undefined)")
3.26

Now take the following compound into account.
Prompt: Entry CCN(CC)C(=S)SSC(C)C has what TGI?
Completion: 30

###

Test system: M14 melanoma
Assay: NCI tumour cell line growth inhibition, 48 h
Reported TGI values are given for each entry in this list.

Some compounds with recorded TGI:
>>> observed_value("COc1ccc(-c2nc3ccccc3s2)cc1OC")
"> 100 µM"
>>> observed_value("CN1CCN(C2=NC(=O)/C(=C\\c3ccc(N(C)C)cc3)S2)CC1")
"> 100 µM"
>>> observed_value("CC1(C)CC(C)(C)c2cc(NC(=S)Nc3ccc([N+](=O)[O-])cc3)ccc2S1")
"> 53.9 µM"
>>> observed_value("O=P1(N(CCCl)CCCl)Oc2ccc(Cl)cc2C(C(Cl)(Cl)Cl)c2cc(Cl)ccc2O1 (stereo unspecified)")
"98.4 µM"
>>> observed_value("O=C1[C@@H]2[C@@H](CN3CN(c4ccccc4)N=C(c4ccccc4)[C@@]23c2ccccc2)C(=O)N1c1ccccc1")
"9.73 µM"

Prompt: Entry O=C(CNc1ccccc1C(=O)O)Nn1cnc2ccc(S(=O)(=O)Nc3ccccc3C(=O)O)cc2c1=O has what TGI?
Completion: > 100 µM

Prompt: Entry Cc1nc(NC(C)(CO)CO)nc(N/N=C/c2ccc(Cl)cc2)c1C(=O)Nc1ccc(Cl)cc1 has what TGI?
Completion: > 100 µM

Prompt: Entry COc1ccc(CCNC(=O)Cc2ccccc2CO)cc1OC has what TGI?
Completion: > 100 µM

Prompt: Entry CCOC(=O)c1cc(-c2ccc(OC)cc2)c([N+](=O)[O-])[nH]1 has what TGI?
Completion: > 10 µM

Prompt: Entry Cc1cccc(C2NC(=O)c3ccccc3N2)c1 (stereo unspecified) has what TGI?
Completion: > 54.8 µM

Prompt: Entry COc1cc2c(/C=C3\C(=O)Nc4ccccc43)c[nH]c2cc1C has what TGI?
Completion: 0.843 µM

Prompt: Entry COc1ccccc1NC(=O)C(=O)C(C(=O)c1ccccc1F)C1OC(=O)c2ccccc21 (stereo unspecified) has what TGI?
Completion: > 100 µM

Prompt: Entry Cn1c(I)c(C#C[Si](C)(C)C)c(=O)n(C(=O)c2ccccc2)c1=O has what TGI?
Completion: 4.16 µM
